Each item that follows carries a reported pKi.
- target-or-test-system: UniProtKB P14842
- assay-info: Serotonin 5-HT2A receptor binding assay ([3H]-Ketanserin, rat frontal cortex membrane)
- assay-setup: Ki from IC50 by Cheng-Prussoff formula
Where a name gives a salt, the structure may show the parent alone.
Hey, just a heads up that pKi is the negative log base 10 of the concentration in molar.

Identify measured pKi corresponding to COc1ccc2ccn(CCCCN3CCN(c4cccc5sccc45)CC3)c(=O)c2c1 [Example 38, hydrochloride] 8.14

More entries:
Identify measured pKi corresponding to O=C1CCc2cccc(OCCCCN3CCN(c4cccc5sccc45)CC3)c2N1 [Example 186] 8.06

Identify measured pKi corresponding to O=C1CCc2ccc(OCCCCN3CCN(c4cccc5sccc45)CC3)cc2N1 [Example 11] 8.24

Identify measured pKi corresponding to O=C1CCc2c(cccc2OCCCN2CCN(c3cccc4sccc34)CC2)N1 [Example 122] 8.54

Identify measured pKi corresponding to O=c1ccc2cccc(OCCCCN3CCN(c4cccc5sccc45)CC3)c2[nH]1 [Example 188] 8.20

Identify measured pKi corresponding to O=C1CCc2cc(OCCCN3CCN(c4cccc5sccc45)CC3)cc(F)c2N1 [Example 116] 8.38

Identify measured pKi corresponding to Cc1cc(=O)[nH]c2cc(OCCCN3CCN(c4cccc5sccc45)CC3)ccc12 [Example 3] 8.64

====

- target-or-test-system: Serotonin 5-HT2A receptor (Rattus norvegicus (Rat))
- assay-info: Serotonin 5-HT2A receptor binding assay ([3H]-Ketanserin, rat frontal cortex membrane)
- assay-setup: Ki from IC50 by Cheng-Prussoff formula
Each item that follows carries a reported pKi.
Hey, just a heads up that pKi is the negative log base 10 of the concentration in molar.

Identify measured pKi corresponding to `Cc1cc2ccc(OCCCN3CCN(c4cccc5sccc45)CC3)cc2[nH]c1=O` 8.19

Identify measured pKi corresponding to `O=C1CCc2ccc(OCCCN3CCN(c4cccc5sccc45)CC3)cc2N1` 8.52

Identify measured pKi corresponding to `CN1CCc2cc(OCCCN3CCN(c4cccc5sccc45)CC3)ccc2C1=O` 8.36

Identify measured pKi corresponding to `O=c1[nH]c2ccccc2cc1OCCN1CCN(c2cccc3sccc23)CC1` 8.82

Identify measured pKi corresponding to `O=C1CCc2ccc(OC/C=C/CN3CCN(c4cccc5sccc45)CC3)cc2N1` 8.48

Kindly consider the entry below.
Identify measured pKi corresponding to `CC(=O)Nc1ccc(OCCCN2CCN(c3cccc4sccc34)CC2)c2c1NC(=O)CC2` 8.52

====

- target-or-test-system: Serotonin (5-HT) uptake (Rattus norvegicus (Rat))
- assay-info: Serotonin (5-HT) uptake inhibitory activity by rat brain synaptosome
- Assay type: biochemical
- assay-setup: test compound 300 nM, rat frontal cortex synaptosome; read-out: Serotonin uptake inhibitory ratio (%) (300 nM)
Answer NO if inhibition at 0.3 µM is under 90%, and YES if it is 90% or more.

Answered cases to consult:
Dear colleague, could you confirm whether CC1CC(=O)Nc2cc(OCCCCN3CCN(c4cccc5sccc45)CC3)ccc21 (centres unmarked) has inhibition at 0.3 µM at or above 90%? NO

Dear colleague, could you confirm whether `O=c1[nH]c2ccccc2cc1OCCN1CCN(c2cccc3sccc23)CC1` has inhibition at 0.3 µM at or above 90%? NO

Dear colleague, could you confirm whether `O=c1c2ccccc2ccn1CCCCN1CCN(c2cccc3sccc23)CC1` has inhibition at 0.3 µM at or above 90%? YES

Dear colleague, could you confirm whether `O=C1c2ccccc2CCN1CCCCCN1CCN(c2cccc3sccc23)CC1` has inhibition at 0.3 µM at or above 90%? YES

Dear colleague, could you confirm whether `Cc1cc(=O)[nH]c2cc(OCCCN3CCN(c4cccc5sccc45)CC3)ccc12` has inhibition at 0.3 µM at or above 90%? NO

Dear colleague, could you confirm whether `O=C1CCc2ccc(OC/C=C/CN3CCN(c4cccc5sccc45)CC3)cc2N1` has inhibition at 0.3 µM at or above 90%? NO

Dear colleague, could you confirm whether `CCN1CCc2cc(OCCCN3CCN(c4cccc5sccc45)CC3)ccc2C1=O` has inhibition at 0.3 µM at or above 90%? YES

Please look at the following compound next.
Dear colleague, could you confirm whether `O=C1CCc2ccc(OC/C=C\CN3CCN(c4cccc5sccc45)CC3)cc2N1` has inhibition at 0.3 µM at or above 90%? NO

====

- target-or-test-system: Serotonin 5-HT2A receptor (Rattus norvegicus (Rat))
- assay-info: Serotonin 5-HT2A receptor binding assay ([3H]-Ketanserin, rat frontal cortex membrane)
- assay-setup: Ki from IC50 by Cheng-Prussoff formula
Structures can show the parent of a compound that is named as a salt.
property-name: Ki (nM)
Unit nM implied. Number only.

Known results for molecules:
Identify measured Ki corresponding to Cn1ccc2ccc(OCCCN3CCN(c4cccc5sccc45)CC3)cc2c1=O [Example 36, hydrochloride] 2.1

Identify measured Ki corresponding to `Cc1cc(=O)[nH]c2cc(OCCCCN3CCN(c4cccc5sccc45)CC3)ccc12` 4.9

Identify measured Ki corresponding to CC1CC(=O)Nc2cc(OCCCCN3CCN(c4cccc5sccc45)CC3)ccc21 (stereo not shown) 7

Identify measured Ki corresponding to `Cc1cc(=O)[nH]c2ccc(OCCCCN3CCN(c4cccc5sccc45)CC3)cc12` 5

Kindly consider the entry below.
Identify measured Ki corresponding to `O=c1ccc2ccc(OCCCN3CCN(c4cccc5sccc45)CC3)cc2[nH]1` 4

====

- target-or-test-system: Serotonin (5-HT) uptake (Rattus norvegicus (Rat), UniProt P31652)
- Sequence (P31652 whole entry): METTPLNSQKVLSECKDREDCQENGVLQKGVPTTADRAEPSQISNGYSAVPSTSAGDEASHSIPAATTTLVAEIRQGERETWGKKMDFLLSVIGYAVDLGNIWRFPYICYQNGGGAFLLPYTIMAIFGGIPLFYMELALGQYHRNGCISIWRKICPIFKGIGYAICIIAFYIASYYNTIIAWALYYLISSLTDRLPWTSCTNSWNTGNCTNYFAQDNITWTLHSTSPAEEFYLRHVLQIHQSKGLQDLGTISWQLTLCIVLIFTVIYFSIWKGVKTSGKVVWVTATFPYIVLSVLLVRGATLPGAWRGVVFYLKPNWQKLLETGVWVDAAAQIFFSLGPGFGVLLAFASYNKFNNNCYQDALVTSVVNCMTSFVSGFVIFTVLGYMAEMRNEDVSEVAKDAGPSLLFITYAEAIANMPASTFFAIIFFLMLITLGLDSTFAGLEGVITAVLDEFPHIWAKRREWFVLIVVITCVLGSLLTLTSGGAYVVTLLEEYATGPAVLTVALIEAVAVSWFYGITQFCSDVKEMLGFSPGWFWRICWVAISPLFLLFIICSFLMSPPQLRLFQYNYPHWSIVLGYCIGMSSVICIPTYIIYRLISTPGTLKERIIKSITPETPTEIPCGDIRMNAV
- assay-info: Serotonin (5-HT) uptake inhibitory activity by rat brain synaptosome
- Assay type: biochemical
- assay-setup: test compound 300 nM, rat frontal cortex synaptosome; read-out: Serotonin uptake inhibitory ratio (%) (300 nM)
property-name: inhibition at 0.3 µM (%)
Unit % implied. Number only.

Known results for compounds:
Identify measured inhibition at 0.3 µM corresponding to `O=c1ccc2ccc(OCCCN3CCN(c4cccc5sccc45)CC3)cc2[nH]1` 91

Identify measured inhibition at 0.3 µM corresponding to `O=C1NCCc2cc(OCCCN3CCN(c4cccc5sccc45)CC3)ccc21` 91.9

Identify measured inhibition at 0.3 µM corresponding to `O=c1ccc2ccc(OCCCCN3CCN(c4cccc5sccc45)CC3)cc2[nH]1` 92.4

Identify measured inhibition at 0.3 µM corresponding to `CN1CCc2cc(OCCCN3CCN(c4cccc5sccc45)CC3)ccc2C1=O` 92

More entries:
Identify measured inhibition at 0.3 µM corresponding to `Cc1cc2ccc(OCCCN3CCN(c4cccc5sccc45)CC3)cc2[nH]c1=O` 89.1

Identify measured inhibition at 0.3 µM corresponding to `Cc1cc(=O)[nH]c2cc(OCCCCN3CCN(c4cccc5sccc45)CC3)ccc12` 91

====

- target-or-test-system: Serotonin 5-HT2A receptor (Rattus norvegicus (Rat), UniProt P14842)
- Sequence (P14842 whole entry): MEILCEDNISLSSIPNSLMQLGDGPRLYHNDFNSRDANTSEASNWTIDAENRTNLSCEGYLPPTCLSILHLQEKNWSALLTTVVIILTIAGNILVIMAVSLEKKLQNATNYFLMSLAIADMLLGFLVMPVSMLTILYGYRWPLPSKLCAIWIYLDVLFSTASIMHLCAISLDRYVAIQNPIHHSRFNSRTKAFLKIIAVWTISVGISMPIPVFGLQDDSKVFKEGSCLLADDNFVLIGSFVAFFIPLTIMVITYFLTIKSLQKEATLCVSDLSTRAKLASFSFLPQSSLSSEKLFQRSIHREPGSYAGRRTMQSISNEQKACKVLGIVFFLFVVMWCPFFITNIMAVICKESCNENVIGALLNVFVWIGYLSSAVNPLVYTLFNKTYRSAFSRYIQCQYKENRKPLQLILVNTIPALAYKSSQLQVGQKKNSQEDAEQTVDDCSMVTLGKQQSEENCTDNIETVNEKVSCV
- assay-info: Serotonin 5-HT2A receptor binding assay ([3H]-Ketanserin, rat frontal cortex membrane)
- assay-setup: Ki from IC50 by Cheng-Prussoff formula
- Procedure: 2) Serotonin 5-HT2A Receptor Binding Assay […] The filter plate made of glass fiber was washed with 50 mM Tris-hydrochloric acid buffer (pH 7.4), and after dried, a microplate liquid scintillation cocktail was added and the radioactivity was measured with a microplate scintillation counter. Radioactivity in the presence of 10 μM spiperone was assumed as nonspecific binding. IC50 value was calculated from concentration-dependent reaction using a non-linear analysis program. […]
// boundary case: Ki equal to 4 nM maps to -1; strictly smaller maps to 1

Just wondering, is Ki of `O=C1NCCc2cc(OCCCN3CCN(c4cccc5sccc45)CC3)ccc21` below 4 nM? -1

Just wondering, is Ki of `O=c1ccc2cc(OCCCN3CCN(c4cccc5sccc45)CC3)cc(F)c2[nH]1` below 4 nM? 1

Just wondering, is Ki of `O=c1ccc2cc(OCCCCN3CCN(c4cccc5sccc45)CC3)cc(F)c2[nH]1` below 4 nM? -1

More entries:
Just wondering, is Ki of `O=c1ccc2ccc(OCCCCN3CCN(c4cccc5sccc45)CC3)cc2[nH]1` below 4 nM? 1
